Please go through the items and note down their apparent KD of MS2 coat protein.
- System: MS2 coat protein
- experimental-details: apparent KD of MS2 coat protein; designed switch direction (-1 OFF switch, 1 ON switch): 1; higher = weaker reporter binding
- condition-details: input ligand: FMN 200 uM
One number for each entry, in nM.

Previously resolved entries follow.
residues	system-name	apparent KD of MS2 coat protein [nM]
GCCAUCGUGUGAGGAUAUGGCACCGUUUCGGUGCCAGAAGGCAUGUCAAUUGACAUGAGGAUCACCCAUGUAUUAGCGAUGGCA [JL Fiskers NG1ss - 33 mod 3] (Eterna round: R96, puzzle: Same State NG 1)	MS2 coat protein	159
GGUGCGAAAUAAGCCUACAUGAGGAUCACCCAUGUAUGUAGGCAGGAUAUCGUUUGCAAAGCAAACGAGAAGGGCUGACGCACC [Mat - Same State NG 3 - JL Mod - D50] (Eterna round: R96, puzzle: Same State NG 3)	MS2 coat protein	31.1
GUUACAUGAGGAUCACCCAUGUGUGUGUGGGAGUGAGUGGCUUAGGAUAUCUAUGAUUUUAGUUGAGAGAAGGAGGAUUGCUGU [SS-NG3-LRO08] (Eterna round: R96, puzzle: Same State NG 3)	MS2 coat protein	439
AAGUGGAACUGAGGAUAUGGCAUCCGAACAUGAGGAUCACCCAUGUAGUUAGGAAAAGAACGGAGCCAGAAGGUAGGACUCCGC [Soqube] (Eterna round: R96, puzzle: Same State NG 2)	MS2 coat protein	10.6
CACAUGAGGAUCACCCAUGUGAGGCGGCAAUAAAGCCGCGCACAGGAUAUAGCGCUAUGAAUGCGCUAGAAGGGUGAUUAGAAC [Reines] (Eterna round: R96, puzzle: Same State NG 3)	MS2 coat protein	240
CUUUUUAAUGCAGGAUAUGAUCAACAUGAGGAUCACCCAUGUGGCGUUGUGAGUAAGGAGAGUGAUCAGAAGGGCAUCUCCUCA [SS-NG2-LRO07] (Eterna round: R96, puzzle: Same State NG 2)	MS2 coat protein	57.5
CCGCGCUGUCGAGAGGAUAUGCGGUGAUGGACAUGAGGAUCACCCAUGUUAGCGAUAGCAUUACUGUAGAAGGCUCUACGGCGGC [JL-ss2-3.09 ViennaUCT mod] (Eterna round: R96, puzzle: Same State 2)	MS2 coat protein	11.2
GCCAUCGCAUGAGGAUAUGGCACCGUUUCGGUGCCAGAAGGCAUGUCAAAUGACAUGAGGAUCACCCAUGUAGUUAAGAUGGCA [JL Fiskers NG1ss - 33 mod 9] (Eterna round: R96, puzzle: Same State NG 1)	MS2 coat protein	29.2

// apparent KD of MS2 coat protein (MS2 coat protein) for UGAAUAGUUACAGGAUAUGAGCCGUAAAUUGGGUCAGAAGGGUGGGUGUUUUGCGCUGUGUGCUACAUGAGGAUCACCCAUGUU [SameState NG1 #33] (Eterna round: R96, puzzle: Same State NG 1) = 520

###

- Tested on: MS2 coat protein
- experimental-details: apparent KD of MS2 coat protein; designed switch direction (-1 OFF switch, 1 ON switch): 1; higher = weaker reporter binding
- condition-details: input ligand: microRNA oligo, concentration not stated
Decide using apparent KD of MS2 coat protein: a value greater than or equal to 0.1 µM is met, a smaller one is not met.

Consider the following illustrative entries.
residues	class-name
GUGGUCAGACAUGAGGAUCACCCAUGUGGAAUAAAUAACGGACAGGAUAUGCAAUAUAGGAUAUAGUAGAAGGGUUGAUUGGUG (Eterna round: R96, puzzle: Same State NG 3)	not met
GCUCGAUGAUAGGCCUACAUGAGGAUCACCCAUGUAAGUGGGCAGGAUAUCUAAAUGCAGAAUGUAGAGAAGGGCCCGUCGAGC [SameState NG3 #54] (Eterna round: R96, puzzle: Same State NG 3)	met
GCCAUCGUAUGAGGAUAUGGCACCGUUUCGGUGCCAGAAGGCAUGUCAAUUGACAUGAGGAUCACCCAUGUAUUUUCGAUGGCA [JL Fiskers NG1ss - 33 mod 11] (Eterna round: R96, puzzle: Same State NG 1)	met

**Query** Check this sequence for apparent KD of MS2 coat protein at or above 0.1 µM: GAGCUCGUGUGAGGAUAUGCCGCCGUUUCGGCUGCAGAAGGUGCUACGUUACAUGAGGAUCACCCAUGUCUCUGUUGUUUCGUU [salish99_SSNG1_r04_959] (Eterna round: R96, puzzle: Same State NG 1)
**Result** not met

###

- Test system: MS2 coat protein
- experimental-details: apparent KD of MS2 coat protein; designed switch direction (-1 OFF switch, 1 ON switch): 1; higher = weaker reporter binding
- condition-details: input ligand: none
Give apparent KD of MS2 coat protein for every item shown.

Take each entry in turn and give its apparent KD of MS2 coat protein.
1. UGAAUAAUGAUAGGAUAUACAUGAGGAAUCCUCGUAGAAGGAUCAUGACAUGAGGAUCACCCAUGUAGCGCUCGAAAGAGCGCA [Mat - Same State NG 1 - JL mod - D52] (Eterna round: R96, puzzle: Same State NG 1)
2. UUGAAGAAUUAAGGAUAUUGAAUACAUAUGUUUAACAUGAGGAUCACCCAUGUGGGUUGCGGUAUCGAGAAGGUAAAUUACUAA [Mat - Same State NG 2 - JL mod - D1] (Eterna round: R96, puzzle: Same State NG 2)

**Result**
1. 232 nM
2. 112 nM

###

- System: MS2 coat protein
- experimental-details: apparent KD of MS2 coat protein; designed switch direction (-1 OFF switch, 1 ON switch): 1; higher = weaker reporter binding
- condition-details: input ligand: microRNA oligo, concentration not stated
Exercise: state measured apparent KD of MS2 coat protein for each of the sequences provided.
Numbers only, in nM.

residues	apparent KD of MS2 coat protein / nM
AGCUAUUACGAAGGAUAUUCUGACAUGAGGAUCACCCAUGUCUUCAUGAUUUAUUGUGAUCACAUGAAGAAGGUUGUACUAACA [SameState NG2 #25] (Eterna round: R96, puzzle: Same State NG 2)	130
AAUUAAUUAAUUAAUAUACAUGAGGAUCACCCAUGUAAGAUCAAGGAUAUCAGCUCGAAUAGAGCUGAGAAGGUGAUCACAUGU [SSNG3/16-A1] (Eterna round: R96, puzzle: Same State NG 3)	251

With those in mind, consider the next sequence.
GET /value?item= UGAAUAGUUACAGGAUAUGAGCCGUAAAUUGGGUCAGAAGGGUGGGUGUUUUGCGCUGUGUGCUACAUGAGGAUCACCCAUGUU [SameState NG1 #33] (Eterna round: R96, puzzle: Same State NG 1) &field=apparent KD of MS2 coat protein returns 172

###

- Test system: MS2 coat protein
- experimental-details: apparent KD of MS2 coat protein; designed switch direction (-1 OFF switch, 1 ON switch): -1; higher = weaker reporter binding
- condition-details: input ligand: none
Classification field: MET = apparent KD of MS2 coat protein at or over 40 nM; NOT MET = apparent KD of MS2 coat protein under 40 nM.

residues	system-name	class-name
UACAAGCUGCUCUAAUAGAACAUGAGGAUCACCCAUGUUGCUAAACAUGAAAGAAUUGGCUCCGCAUGGAUUGCUCG [Eternabot (L2) Solution 9] (Eterna round: R97, puzzle: Sensor, turn-off variant 1)	MS2 coat protein	NOT MET
AGUGUGUGGCAGGAUAUGCGAUUUGUAGGUGAAGCAGAAGGGUCUACAUGAGGAUCACCCAUGUGUGCGGUUGA [Ex6 #18] (Eterna round: R97, puzzle: Exclusion 6)	MS2 coat protein	MET
UAUUAAACAAGCGGAUCCCACAUGAGGAUCACCCAUGUGCUCGUCUUAUAAGGUACUGUGACGAAAGUCACGGUACC [Sensor 3, v1 - 91 v13] (Eterna round: R97, puzzle: Sensor, turn-off variant 1)	MS2 coat protein	NOT MET

**Query** Could you tell me if the measured apparent KD of MS2 coat protein of UCUCGGACAGGAUAUCUGUCAUCUGACAUGAGGAUCACCCAUGUCCUCGCCGCCAACCCAAGAGAAGGGUCCCACA [Eternabot (L1) Solution 76] (Eterna round: R97, puzzle: Exclusion 5) reaches 40 nM or more?
**Result** MET

**Query** State whether the measured apparent KD of MS2 coat protein reaches 40 nM, counting equality as reaching it, for CCCAGUUAUCAAGGAUAUUGUACAUGAGGAUCACCCAUGUAAUAAAUGAGGAUUUCGGGUGUCUACAAGAAGGUGAGGAUAGGC [Ostracism 15 - Jieux - Exclusion NG 2] (Eterna round: R96, puzzle: Exclusion NG 2)
**Result** MET

**Query** Kindly determine if apparent KD of MS2 coat protein recorded for AUUAAAGACCGAGGAUAUCGAGGAAAUACCCUGCGAGAAGGCGGGUACUCGGACGAUUCGACAUGAGGAUCACCCAUGUGCACA [Atrivece] (Eterna round: R96, puzzle: Exclusion NG 1) is above or exactly 40 nM.
**Result** NOT MET

**Query** Determine whether this sequence has apparent KD of MS2 coat protein no lower than 40 nM: AACCAACAUGAGGAUCACCCAUGUGAGGAUAUAGCUAACGACCAGACCUGGAAUGUUGUUAGAAGGUGCAGGGU [Eternabot (Original) Solution 4] (Eterna round: R97, puzzle: Exclusion 1)
**Result** NOT MET

**Query** Is it the case that AAUUAAGCAAGCAGAUCCCACAUGAGGAUCACCCAUGUGCUCGUCUUAUAAGGUACUGUGACAAAAGUCACGGUACC [Mat - Sensor, turn-off var - Eli Mod - D73] (Eterna round: R97, puzzle: Sensor, turn-off variant 1) has apparent KD of MS2 coat protein reaching or exceeding 40 nM?
**Result** MET

**Query** Determine whether measured apparent KD of MS2 coat protein meets or exceeds 40 nM for GUGUCGUAAGGAUAUUUACCUGAGCCACUAGAGCGCUUGGAGAAGAAGGUACAUGAGGAUCACCCAUGUGGUGA [Eternabot (L2) Solution 61] (Eterna round: R97, puzzle: Exclusion 4)
**Result** MET

Cited source for all entries: the supplement of paper PMC9170038
